// reported MIC per item
System: WI-38
experiment.description: Minimum inhibitory concentration (MIC) required to reduce virus-induced cytopathogenicity by 50% against Rhinovirus 9 in human diploid (WI-38)cells
Format: functional
study.conditions: Homo sapiens; read-out: MIC

Previously resolved entries follow.
- compound: "Cc1cn([C@@H]2O[C@H](CO)[C@H](O)[C@@H]2O)c(=O)[nH]c1=O"
  MIC: "> 150 µg/mL"
- compound: "Nc1ccn([C@@H]2O[C@H](CO)[C@H](O)[C@@H]2O)c(=O)n1"
  MIC: "> 200 µg/mL"
- compound: "Nc1ncnc2c1ncn2[C@@H]1O[C@H](CO)[C@H](O)[C@@H]1O (stereo in doubt; 8)"
  MIC: "> 200 µg/mL"
- compound: "Cc1cn([C@H]2O[C@H](CO)[C@H](O)[C@@H]2O)c(=O)[nH]c1=O"
  MIC: "> 400 µg/mL"
- compound: "Nc1ncnc2c1ccn2[C@@H]1O[C@H](CO)[C@@H](O)[C@H]1O [TUBERCIDIN]"
  MIC: "> 4 µg/mL"

Sample `Nc1ccn([C@H]2O[C@H](CO)[C@H](O)[C@@H]2O)c(=O)n1` , system: WI-38. Its MIC is > 400 µg/mL

Sample `O=c1ccn([C@@H]2O[C@H](CO)[C@H](O)[C@@H]2O)c(=O)[nH]1` , system: WI-38. Its MIC is 100 µg/mL

Sample `O=c1ccn([C@H]2O[C@H](CO)[C@H](O)[C@@H]2O)c(=O)[nH]1` , system: WI-38. Its MIC is > 400 µg/mL

Sample `Nc1nc2c(ncn2[C@@H]2O[C@H](CO)[C@H](O)[C@@H]2O)c(=O)[nH]1` , system: WI-38. Its MIC is > 400 µg/mL

Sample NC(=O)c1ncn([C@@H]2O[C@H](CO)[C@@H](O)[C@H]2O)n1 [RIBAVIRIN] , system: WI-38. Its MIC is > 400 µg/mL

Sample `Nc1nc2c(ncn2[C@H]2O[C@H](CO)[C@H](O)[C@@H]2O)c(=O)[nH]1` , system: WI-38. Its MIC is 200 µg/mL

Sample Nc1nccc2c1ncn2[C@@H]1C[C@H](CO)[C@@H](O)[C@H]1O [3-DEAZAARISTEROMYCIN A] , system: WI-38. Its MIC is > 400 µg/mL

---

Species: Oryctolagus cuniculus
experiment.description: Minimum inhibitory concentration (MIC) required to reduce virus-induced cytopathogenicity by 50% against Vaccinia virus in primary rabbit kidney cells
Assay type: functional
study.conditions: Oryctolagus cuniculus; read-out: MIC
measured.quantity: log10(MIC) (log10 of the value in µg/mL)
Base-10 log of MIC, unit µg/mL.

Previously resolved entries follow.
- mol: "Nc1ccn([C@@H]2O[C@H](CO)[C@H](O)[C@@H]2O)c(=O)n1"
  measured.quantity: "log10(MIC)"
  result: 1.85
- mol: "Nc1nccc2c1ncn2[C@@H]1C[C@H](CO)[C@@H](O)[C@H]1O"
  measured.quantity: "log10(MIC)"
  result: -0.15
- mol: "Nc1ncnc2c1ccn2[C@@H]1O[C@H](CO)[C@@H](O)[C@H]1O"
  measured.quantity: "log10(MIC)"
  result: -0.70
- mol: "NC(=O)c1ncn([C@@H]2O[C@H](CO)[C@@H](O)[C@H]2O)n1"
  measured.quantity: "log10(MIC)"
  result: 1.30

Here's the next entry for you.
Data point: `Nc1nc2c(ncn2[C@@H]2O[C@H](CO)[C@H](O)[C@@H]2O)c(=O)[nH]1` ; log10(MIC) = 2.00
